- Experiment: qHTS assay to identify small molecule antagonists of the estrogen receptor alpha (ER-alpha) signaling pathway using the BG1 cell line (AID 743080);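 also: BG1 cells stimulated with 17beta-estradiol alongside compound; nearly all actives have a fitted effect of over 25% in size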
- Condition Description: BG1Luc4E2 ERE-luciferase antagonist mode, luminescence; series mostly up to 70.3 µM
Inconclusive results are not listed. Active and inactive are the calls of the source. Calls follow the shape of the full dose curve.
Possible outcomes: active, inactive

[
  {
    "Test Smiles": "C=C(C)C(=O)OCCCCCCCCCCCCC",
    "Group": "inactive"
  },
  {
    "Test Smiles": "C[C@]1(Cn2ccnn2)[C@H](C(=O)O)N2C(=O)C[C@H]2S1(=O)=O",
    "Group": "inactive"
  },
  {
    "Test Smiles": "CCC1(CO)COCOC1",
    "Group": "inactive"
  },
  {
    "Test Smiles": "CCCC(=O)C(=O)O",
    "Group": "inactive"
  },
  {
    "Test Smiles": "O=C(O)CCC(=O)C(=O)O",
    "Group": "inactive"
  },
  {
    "Test Smiles": "COc1cc(C(=O)NC2CCN(C)CC2)ccc1Nc1ncc2c(n1)N(C1CCCC1)CC(F)(F)C(=O)N2C",
    "Group": "active"
  },
  {
    "Test Smiles": "C[C@]12CC[C@@H]3c4ccc(O)cc4CC[C@H]3[C@@H]1CC[C@@H]2OC(=O)CCC1CCCC1",
    "Group": "inactive"
  }
]

###

- System Under Test: Androgen receptor (Homo sapiens)
- Experiment: qHTS assay to identify small molecule agonists of the androgen receptor (AR) signaling pathway in the presence of an antagonist (AID 1259381); also: % is scaled to controls: 0 for no effect and ±100 for the full control effect; nearly all actives have a fitted effect of over 15% in size
- Condition Description: MDA-kb2 MMTV-luciferase, AR agonist + nilutamide, 16 h; series mostly up to 92.4 µM
Active and inactive are the calls of the source. Calls come from the whole dose curve.

[
  {
    "Molecule": "C[C@H]1c2cccc(O)c2C(O)=C2C(=O)[C@]3(O)C(O)=C(C(N)=O)C(=O)[C@@H](N(C)C)[C@@H]3[C@@H](O)[C@@H]21",
    "outcome": "inactive"
  },
  {
    "Molecule": "C=C1C[C@@]23CC[C@H]4[C@@](C)(CCC[C@@]4(C)C(=O)O[C@@H]4O[C@H](CO)[C@@H](O)[C@H](O)[C@H]4O)[C@@H]2CC[C@]1(O[C@@H]1O[C@H](CO)[C@@H](O)[C@H](O[C@@H]2O[C@H](CO)[C@@H](O)[C@H](O)[C@H]2O)[C@H]1O[C@@H]1O[C@H](CO)[C@@H](O)[C@H](O)[C@H]1O)C3",
    "outcome": "inactive"
  },
  {
    "Molecule": "CCCCCC[C@@H](O)C/C=C\\CCCCCCCC(=O)OCC(O)CO (stereo partly drawn)",
    "outcome": "inactive"
  }
]

###

- System Under Test: Cytochrome P450 2C9 (Homo sapiens)
- Experiment: Cytochrome P450 Family 2 Subfamily C Member 9 (CYP2C9) small molecule antagonists: luciferase reporter qHTS assay (AID 1671198); also: nearly all actives have a fitted effect of over 50% in size
- Condition Description: P450-Glo CYP2C9 enzyme assay, luciferin luminescence; series mostly up to 115 µM
Records with an inconclusive call do not appear. Active and inactive are the calls of the source. Calls come from the whole dose curve; as a rule, active = well fitted inhibition curve with a large enough effect in the repeat runs; inconclusive = weak or mixed curves; inactive = no such curve, though single readings can be large or run the other way.
Classes used: active, inactive

[
  {
    "Compound": "CCCCCCNC(=O)n1cc(F)c(=O)[nH]c1=O",
    "Group": "active"
  },
  {
    "Compound": "CC(=O)N/N=C/c1ccc([N+](=O)[O-])o1",
    "Group": "inactive"
  },
  {
    "Compound": "NCCNCCO",
    "Group": "inactive"
  },
  {
    "Compound": "CCc1ccccc1",
    "Group": "inactive"
  },
  {
    "Compound": "COc1cc(N)c(Cl)cc1C(=O)NC1CCN(CCCOc2ccc(F)cc2)CC1OC (stereo not drawn)",
    "Group": "inactive"
  },
  {
    "Compound": "C=C(C)[C@@H]1CCC2=CCC[C@@H](C)[C@]2(C)C1",
    "Group": "active"
  },
  {
    "Compound": "O=C(Nc1cccc2c(=O)cc(-c3nn[nH]n3)oc12)c1ccc(OCCCCc2ccccc2)cc1",
    "Group": "active"
  },
  {
    "Compound": "CC(C)=CC(=O)C=C(C)C",
    "Group": "inactive"
  },
  {
    "Compound": "CN1CCCC(CC2c3ccccc3Sc3ccccc32)C1 (stereo not drawn)",
    "Group": "inactive"
  },
  {
    "Compound": "C[C@]1(Cn2ccnn2)[C@H](C(=O)O)N2C(=O)C[C@H]2S1(=O)=O",
    "Group": "inactive"
  },
  {
    "Compound": "Cc1ccc(CO)cc1",
    "Group": "inactive"
  },
  {
    "Compound": "COC(=O)C1=C(C)NC(C)=C(C(=O)O[C@@H]2CCCN(Cc3ccccc3)C2)[C@@H]1c1cccc([N+](=O)[O-])c1",
    "Group": "active"
  },
  {
    "Compound": "CCCCCCCCN",
    "Group": "inactive"
  }
]

###

- Experiment: qHTS assay to test for compound auto fluorescence at 460 nm (blue) in HEK293 cell free culture (AID 720681); also: % is scaled to controls: 0 for no effect and ±100 for the full control effect
- Condition Description: cell-free medium, autofluorescence 405/460 nm (blue); series mostly up to 91.3 µM
- Excerpt: U.S. Tox21 Program National Center for Advancing Translational Sciences [NCATS] NIH Chemical Genomics Center [NCGC] U.S. Environmental Protection Agency [EPA] National Institutes of Environmental Health Sciences [NIEHS] National Toxicology Program [NTP] U.S. Food and Drug Administration [FDA] Tox21 Assay Overview: Compound auto fluorescence often interferes with screening of the compound library against various biological targets and signaling pathways. […] This assay includes the blue fluorescence data. […]
The source made the active and inactive calls. The call rests on the fitted dose curve; in most records, active means well fitted curve in the direction sought with a large enough effect in the repeat runs; inconclusive means weak or mixed curves; inactive means flat fitted curve, though single readings scatter.

[
  {
    "Compound": "C[C@@H](CN(C)C)CN1c2ccccc2Sc2ccccc21",
    "fluorescence, % of fluorescent control": "0.0136% [at 18.6 µM] (inactive)"
  },
  {
    "Compound": "CC(CO)CO",
    "fluorescence, % of fluorescent control": "inactive"
  },
  {
    "Compound": "O=C(O)C[C@H](NC(=O)OCc1ccccc1)C(=O)O",
    "fluorescence, % of fluorescent control": "inactive"
  },
  {
    "Compound": "O=[N+]([O-])c1cc(C2CCCCC2)c(O)c([N+](=O)[O-])c1",
    "fluorescence, % of fluorescent control": "inactive"
  },
  {
    "Compound": "C=C1CCC2CC1C2(C)C (stereo unspecified)",
    "fluorescence, % of fluorescent control": "inactive"
  },
  {
    "Compound": "CCOC(=O)OC(C)OC(=O)[C@@H]1N2C(=O)[C@@H](NC(=O)[C@H](N)c3ccccc3)[C@H]2SC1(C)C (stereo partly specified)",
    "fluorescence, % of fluorescent control": "0.602% [at 18.6 µM] (inactive)"
  }
]

###

- Experiment: qHTS assay to identify small molecule that activate the aryl hydrocarbon receptor (AhR) signaling pathway - cell viability counter screen (AID 743086); also: nearly all actives have a fitted effect of over 45% in size
- Condition Description: HepG2-AhR-luc viability, CellTiter-Fluor, 24 h; series mostly up to 70.3 µM
- Description: U.S. Tox21 Program National Center for Advancing Translational Sciences [NCATS] NIH Chemical Genomics Center [NCGC] U.S. Environmental Protection Agency [EPA] National Institutes of Environmental Health Sciences [NIEHS] National Toxicology Program [NTP] U.S. Food and Drug Administration [FDA] Tox21 Assay overview: The Aryl hydrocarbon Receptor (AhR), a member of the family of basic helix-loop-helix transcription factors, is crucial to adaptive responses to environmental changes. […]
Results filed as inconclusive are left out. The source made the active and inactive calls. The call rests on the fitted dose curve; in most records, active means well fitted cell-killing curve with a large enough effect in the repeat runs; inconclusive means weak or mixed curves, or effect the other way; inactive means flat fitted curve, though single readings scatter.
Classes used: active, inactive

[
  {
    "Molecule": "OC[C@H]1O[C@@H](n2cnc3c(=S)nc[nH]c32)[C@H](O)[C@@H]1O",
    "Group": "inactive"
  },
  {
    "Molecule": "Cc1ccc(Cl)c(Nc2ccccc2C(=O)O)c1Cl",
    "Group": "inactive"
  },
  {
    "Molecule": "CN(C)CCN1C(=O)c2ccccc2N(C)c2ccccc21",
    "Group": "inactive"
  },
  {
    "Molecule": "O=c1cc(-c2ccccc2)oc2ccc3ccccc3c12",
    "Group": "inactive"
  },
  {
    "Molecule": "CC(=O)NC1(c2cccc(F)c2)CCN(CC[C@@]2(c3ccc(Cl)c(Cl)c3)CN(c3ccccc3)C(=O)CO2)CC1",
    "Group": "active"
  },
  {
    "Molecule": "CN(C)CCC=C1c2ccccc2C=Cc2ccccc21",
    "Group": "inactive"
  },
  {
    "Molecule": "CO[C@]1(NC(=O)CSC(F)F)C(=O)N2C(C(=O)O)=C(CSc3nnnn3CCO)CO[C@H]21",
    "Group": "inactive"
  },
  {
    "Molecule": "C[C@]12CC[C@@H]3c4ccc(O)cc4CC[C@H]3[C@@H]1CC[C@@H]2OC(=O)CCC1CCCC1",
    "Group": "inactive"
  },
  {
    "Molecule": "Nc1cccc2c1CN(C1CCC(=O)NC1=O)C2=O (stereo unspecified)",
    "Group": "inactive"
  },
  {
    "Molecule": "CCCCCC[C@@H](O)C/C=C\\CCCCCCCC(=O)O",
    "Group": "inactive"
  },
  {
    "Molecule": "Brc1cc2ccccc2c2ccccc12",
    "Group": "inactive"
  }
]
